// compounds with reported pIC50 on Matrix metalloproteinase-14 (Homo sapiens, UniProt P50281), multi-publication
Give bare numbers, as −log10 of the molar value.

Solved entries (count: 5):
- compound: "COc1cc(C)cc(COc2ccc(S(=O)(=O)CC(C=C3CCC(=O)CC3)N(O)C=O)cc2)c1 (stereo not drawn)"
  pIC50: 4.40
- compound: "CC(C)ON([C@H](CCNC(=O)Cc1ccccc1)C(=O)NO)S(=O)(=O)c1ccc(-c2ccccc2)cc1"
  pIC50: 7.09
- compound: "Cc1cccc(CCC(CS(=O)(=O)c2ccc(OCc3cc(C)nc4ccccc34)cc2)N(O)C=O)c1 (stereo not drawn)"
  pIC50: 4.37
- compound: "Cc1cc(COc2ccc(S(=O)(=O)CC(N(O)C=O)C3(C)CCC4(CC3)OCCO4)cc2)c2ccccc2n1 (stereo not drawn)"
  pIC50: 4.22
- compound: "CCC(CC)C(=O)N1CCC(CC(CS(=O)(=O)c2ccc(OCc3cc(C)nc4ccccc34)cc2)N(O)C=O)C(C)C1 (stereo not drawn)"
  pIC50: 4.19

Would you mind giving pIC50 for every compound in the list below?
1. COC(=O)C(C(=O)/C=C/c1ccc(O)c(OC)c1)C(=O)/C=C/c1ccc(O)c(OC)c1
2. O=C(CC(CCn1nnc2ccccc2c1=O)C(=O)O)c1cc2cc(OCCC3CCOCC3)ccc2o1 (racemic)
3. Cc1cccc(C(CS(=O)(=O)c2ccc(OCc3cc(C)nc4ccccc34)cc2)N(O)C=O)c1 (stereo not drawn)
4. COC(=O)Nc1cccc(COc2ccc(C(=O)[C@@H]3CC[C@H](Cn4nnc5ccc(C(F)(F)F)cc5c4=O)[C@H]3C(=O)O)cc2)c1 (stereo in doubt)
5. O=C(O)[C@H]1[C@H](Cn2nnc3ccccc3c2=O)CC[C@@H]1C(=O)c1ccc(OCc2ccc(F)cc2)cc1 (racemic)

Marked response:
1. 4.31
2. 4.43
3. 4.38
4. 6.40
5. 7.62
